Molecular target: Serotonin 3 (5-HT3) receptor (Rattus norvegicus, UniProt P35563+Q9JJ16)
Sequence (P35563 whole entry): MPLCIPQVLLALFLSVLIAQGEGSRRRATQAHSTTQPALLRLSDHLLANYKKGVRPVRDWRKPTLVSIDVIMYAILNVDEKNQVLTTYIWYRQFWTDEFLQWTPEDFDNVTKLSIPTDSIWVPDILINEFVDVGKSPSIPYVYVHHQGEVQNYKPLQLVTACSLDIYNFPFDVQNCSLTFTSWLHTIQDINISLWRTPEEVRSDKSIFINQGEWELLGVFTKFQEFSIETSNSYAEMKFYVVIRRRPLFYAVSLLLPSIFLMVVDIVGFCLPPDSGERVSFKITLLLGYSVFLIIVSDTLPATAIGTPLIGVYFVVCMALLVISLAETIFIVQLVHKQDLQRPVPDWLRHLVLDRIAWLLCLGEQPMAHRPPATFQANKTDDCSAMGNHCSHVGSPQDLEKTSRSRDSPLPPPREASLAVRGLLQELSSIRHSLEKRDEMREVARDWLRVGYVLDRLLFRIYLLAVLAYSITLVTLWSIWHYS
Sequence (Q9JJ16 whole entry): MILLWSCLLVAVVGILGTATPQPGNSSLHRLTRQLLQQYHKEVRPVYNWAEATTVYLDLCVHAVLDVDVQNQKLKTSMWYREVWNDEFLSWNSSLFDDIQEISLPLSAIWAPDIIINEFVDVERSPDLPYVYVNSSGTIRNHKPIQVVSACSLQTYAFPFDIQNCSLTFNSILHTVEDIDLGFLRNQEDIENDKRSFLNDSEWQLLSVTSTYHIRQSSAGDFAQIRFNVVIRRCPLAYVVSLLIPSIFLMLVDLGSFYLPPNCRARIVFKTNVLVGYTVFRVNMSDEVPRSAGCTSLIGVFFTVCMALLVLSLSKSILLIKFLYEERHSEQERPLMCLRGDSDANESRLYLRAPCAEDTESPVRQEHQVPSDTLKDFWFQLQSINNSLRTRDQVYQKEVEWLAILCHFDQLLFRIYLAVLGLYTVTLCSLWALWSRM
Experiment: Displacement of [3H]-Q-ICS 205-930 binding to 5-hydroxytryptamine 3 receptor recognition sites in rat brain membranes.
Assay type: cell membranes
Measurement label: IC50 (nM)
# number only, unit nM dropped from output

Known results for compounds:
[[record]]
compound = "Cn1cc(-c2noc(CCN)n2)c2ccccc21"
reported_result = 67.6

[[record]]
compound = "COc1ccccc1-c1noc(C2CN3CCC2CC3)n1 (stereo not drawn)"
reported_result = 155


Kindly review the next compound as well.
Recorded IC50 of Oc1cccc(-c2noc(C3CN4CCC3CC4)n2)c1 (stereo not drawn) , please.
81.3

All figures here come from ChEMBL document CHEMBL1125715.
